For each record, write down the corresponding MIC.
system: E. faecalis GC 842; assay: Broth dilution MIC; type: cell-based; conditions: Enterococcus faecalis, GC842; E. faecalis GC 842; Mueller-Hinton broth, 18 hours at 35° C.; read-out: Antimicrobial Activity (MIC)

CCCCCCCCCCCCCCCCNC(=O)NC[C@H]1OC(O[C@H](C(NCCCNC(=O)C(NC(=O)C(NC(=O)NC(C(=O)O)C(C)C)C2CCNC(=N)N2)C(O)C(C)C)C(=O)O)[C@H]2O[C@@H](n3ccc(=O)[nH]c3=O)[C@H](O)[C@@H]2O)[C@H](OC)[C@H]1O (some centres unmarked) | > 32 µg/mL

Field: next compound
[in] Please look up its MIC: CO[C@H]1C(O[C@H](C(C(=O)O)N(CCCNC(=O)C(NC(=O)C(NC(=O)NC(C(=O)O)C(C)C)C2CCNC(=N)N2)C(O)C(C)C)Cc2ccccc2)[C@H]2O[C@@H](n3ccc(=O)[nH]c3=O)[C@H](O)[C@@H]2O)O[C@H](CNCc2ccccc2)[C@@H]1O (some centres unmarked) [Example 20B]
[out] > 32 µg/mL

---

For each record, write down the corresponding MIC.
test system: E. cloacae GC 3783; experiment: Broth dilution MIC; format: cell-based; conditions: Enterobacter cloacae, GC3783; E. cloacae GC 3783; Mueller-Hinton broth, 18 hours at 35° C.; read-out: Antimicrobial Activity (MIC)

Here's what some known entries look like.
CO[C@H]1C(O[C@H](C(C(=O)O)N(CCCCCCCCCCCC[N+]2(C)CCOCC2)CCCNC(=O)C(NC(=O)C(NC(=O)NC(C(=O)O)C(C)C)C2CCNC(=N)N2)C(O)C(C)C)[C@H]2O[C@@H](n3ccc(=O)[nH]c3=O)[C@H](O)[C@@H]2O)O[C@H](CN)[C@@H]1O (stereo partly shown) | > 32 µg/mL
CO[C@H]1C(O[C@H](C(NCCCNC(=O)C(NC(=O)C(NC(=O)NC(C(=O)O)C(C)C)C2CCNC(=N)N2)C(O)C(C)C)C(=O)O)[C@H]2O[C@@H](n3ccc(=O)[nH]c3=O)[C@H](O)[C@@H]2O)O[C@H](CNCc2ccc(-c3ccccc3)cc2)[C@@H]1O (stereo partly shown) [Example 19A] | > 32 µg/mL

Parameters: items (list). Returns: MIC for each item.
1. CO[C@H]1C(O[C@H](C(C(=O)O)N(CCCNC(=O)C(NC(=O)C(NC(=O)NC(C(=O)O)C(C)C)C2CCNC(=N)N2)C(O)C(C)C)Cc2ccccc2)[C@H]2O[C@@H](n3ccc(=O)[nH]c3=O)[C@H](O)[C@@H]2O)O[C@H](CN)[C@@H]1O (stereo partly shown)
2. CCCCCCCCNC(=O)NC[C@H]1OC(O[C@H](C2C(=O)N(CCCCCCCC)C(=O)N2CCCNC(=O)C(NC(=O)C(NC(=O)NC(C(=O)O)C(C)C)C2CCNC(=N)N2)C(O)C(C)C)[C@H]2O[C@@H](n3ccc(=O)[nH]c3=O)[C@H](O)[C@@H]2O)[C@H](OC)[C@H]1O (stereo partly shown)

[out]
1. > 32 µg/mL
2. > 32 µg/mL

---

system: M. morganii GC 4531; experiment: Broth dilution MIC; format: cell-based; conditions: Morganella morganii, GC4531; M. morganii GC 4531; Mueller-Hinton broth, 18 hours at 35° C.; read-out: Antimicrobial Activity (MIC)
For each record, write down the corresponding MIC.

Parameters: items (list). Returns: MIC for each item.
1. CCCCCN(CCCNC(=O)C(NC(=O)C(NC(=O)NC(C(=O)O)C(C)C)C1CCNC(=N)N1)C(O)C(C)C)C(C(=O)O)[C@@H](OC1O[C@H](CN)[C@H](O)[C@H]1OC)[C@H]1O[C@@H](n2ccc(=O)[nH]c2=O)[C@H](O)[C@@H]1O (stereo partly drawn)
2. CCCCCCCCCCCCN1C(=O)C([C@@H](OC2O[C@H](CN)[C@H](O)[C@H]2OC)[C@H]2O[C@@H](n3ccc(=O)[nH]c3=O)[C@H](O)[C@@H]2O)N(CCCNC(=O)C(NC(=O)C(NC(=O)NC(C(=O)O)C(C)C)C2CCNC(=N)N2)C(O)C(C)C)C1=O (stereo partly drawn)
3. CCCCCCNC(=O)NC[C@H]1OC(O[C@H](C2C(=O)N(CCCCCC)C(=O)N2CCCNC(=O)C(NC(=O)C(NC(=O)NC(C(=O)O)C(C)C)C2CCNC(=N)N2)C(O)C(C)C)[C@H]2O[C@@H](n3ccc(=O)[nH]c3=O)[C@H](O)[C@@H]2O)[C@H](OC)[C@H]1O (stereo partly drawn)

[out]
["> 32 µg/mL", "> 32 µg/mL", "> 32 µg/mL"]

These entries and their values trace back to patent US6727232B2.
